- System: mouse SGLT2 mRNA
- PROTOCOL: Mouse SGLT2 mRNA in kidney, MOE versus Methyleneoxy BNA gapmers (Table 69)
- Type: in vivo
- MEASUREMENT CONTEXT: 125 nmol/kg i.p. twice per week for three weeks, Balb/c mouse kidney
- Protocol: The effect of ISIS 3796921-10-1 MOE gapmer and ISIS 3886252-8-2 MOE gapmer are compared with the effect of ISIS 3921701-10-1 Methyleneoxy BNA Gapmer and ISIS 3921732-8-2 Methyleneoxy BNA Gapmer (see Table 69) on mouse SGLT2 mRNA levels in vivo. […] Mice were sacrificed 48 hours following last administration and evaluated for SGLT2 mRNA levels in kidney. Target levels were determined by RT, real-time PCR as described by other examples herein. […]
Strand notation (5' to 3'): a small letter for the sugar, then the base; units joined by * are phosphorothioate-linked, units joined directly phosphodiester-linked; [ ] holds rarer units or linkages, { } end groups; capitals alone tell only the bases. e = 2'-O-(2-methoxyethyl) (MOE); l = locked nucleic acid (LNA); [5mC] = 5-methylcytosine; d = 2'-deoxy (DNA)
# SGLT2 mRNA, percent change relative to saline treated animals values compiled below
MEASUREMENT LABEL: SGLT2 mRNA, percent change relative to saline treated animals (%)

SUBSTANCE: ISIS 392173: 2-8-2 Methyleneoxy BNA Gapmer, SGLT2 (lT*lG*dT*dT*d[5mC]*d[5mC]*dA*dG*d[5mC]*d[5mC]*l[5mC]*lA)
NUMERIC READOUT: −75
--
SUBSTANCE: ISIS 392170: 1-10-1 Methyleneoxy BNA Gapmer, SGLT2 (lT*dG*dT*dT*d[5mC]*d[5mC]*dA*dG*d[5mC]*d[5mC]*d[5mC]*lA)
NUMERIC READOUT: −69
--
SUBSTANCE: ISIS 379692: 1-10-1 MOE gapmer, SGLT2 (eT*dG*dT*dT*d[5mC]*d[5mC]*dA*dG*d[5mC]*d[5mC]*d[5mC]*eA)
NUMERIC READOUT: −58
--
SUBSTANCE: ISIS 388625: TGTTCCAGCCCA 2-8-2 MOE Gapmer, SGLT2 (eT*eG*dT*dT*d[5mC]*d[5mC]*dA*dG*d[5mC]*d[5mC]*e[5mC]*eA)
NUMERIC READOUT: −70

---

- System: rat DGAT2 mRNA
- PROTOCOL: Dose-dependent inhibition of DGAT2 in A10 cells (Tables 82, 83)
- Type: cell-based
- MEASUREMENT CONTEXT: 1.85 nM (Table 83)
Strand notation (5' to 3'): a small letter for the sugar, then the base; units joined by * are phosphorothioate-linked, units joined directly phosphodiester-linked; [ ] holds rarer units or linkages, { } end groups; capitals alone tell only the bases. e = 2'-O-(2-methoxyethyl) (MOE); [5mC] = 5-methylcytosine; d = 2'-deoxy (DNA)
MEASUREMENT LABEL: percent inhibition of rat DGAT2 (%)

SUBSTANCE: 372580 (antisense eG*eG*dT*dT*dG*dT*dG*dT*dG*dT*d[5mC]*dT*eT*e[5mC]) [compound 372580]
SYSTEM NAME: rat DGAT2 mRNA
MEASUREMENT LABEL: percent inhibition of rat DGAT2
NUMERIC READOUT: 5

SUBSTANCE: 372624 (antisense eT*eG*dG*dT*d[5mC]*dT*dT*dG*dT*dG*dA*dT*eT*eG) [compound 372624]
SYSTEM NAME: rat DGAT2 mRNA
MEASUREMENT LABEL: percent inhibition of rat DGAT2
NUMERIC READOUT: 0

SUBSTANCE: 372578 (antisense eT*eG*dT*dG*dT*d[5mC]*dT*dT*d[5mC]*dA*d[5mC]*d[5mC]*eA*eG) [compound 372578]
SYSTEM NAME: rat DGAT2 mRNA
MEASUREMENT LABEL: percent inhibition of rat DGAT2
NUMERIC READOUT: 0

SUBSTANCE: 372602 (antisense e[5mC]*e[5mC]*dA*dG*dG*d[5mC]*dA*dT*dG*dG*dA*dG*e[5mC]*eT) [compound 372602]
SYSTEM NAME: rat DGAT2 mRNA
MEASUREMENT LABEL: percent inhibition of rat DGAT2
NUMERIC READOUT: 0

---

- Test system: DGAT2 mRNA
- PROTOCOL: Antisense inhibition of DGAT2 in A10 cells, 75 nM (Table 81)
- Format: cell-based, rat
- MEASUREMENT CONTEXT: approximately 24 hours
- Description: Short antisense compounds targeted to a DGAT2 nucleic acid were tested for their effects on DGAT2 mRNA in vitro. Cultured A10 cells in a 96-well plate were treated with 75 nM of short antisense compound. After a treatment period of approximately 24 hours, RNA was isolated from the cells and DGAT2 mRNA levels were measured by quantitative real-time PCR, as described herein. DGAT2 mRNA levels were adjusted according to total RNA content as measured by RIBOGREEN®. […]
Strand notation (5' to 3'): a small letter for the sugar, then the base; units joined by * are phosphorothioate-linked, units joined directly phosphodiester-linked; [ ] holds rarer units or linkages, { } end groups; capitals alone tell only the bases. e = 2'-O-(2-methoxyethyl) (MOE); [5mC] = 5-methylcytosine; d = 2'-deoxy (DNA)

SUBSTANCE: 372501 (antisense eT*eT*eG*dT*dG*dT*dG*dT*d[5mC]*dT*dT*d[5mC]*dA*e[5mC]*e[5mC]*eA) [compound 372501]
% Control / % Control: 28
--
SUBSTANCE: 372586 (antisense eG*eT*dT*d[5mC]*d[5mC]*dT*dG*dG*dT*dG*dG*dT*e[5mC]*eA) [compound 372586]
% Control / % Control: 40
--
SUBSTANCE: 372618 (antisense eG*eT*dG*dG*dT*dA*d[5mC]*dA*dG*dG*dT*d[5mC]*eG*eA) [compound 372618]
% Control / % Control: 29
--
SUBSTANCE: 372524 (antisense eG*e[5mC]*e[5mC]*dA*dG*dG*d[5mC]*dA*dT*dG*dG*dA*dG*e[5mC]*eT*e[5mC]) [compound 372524]
% Control / % Control: 21
--
SUBSTANCE: 372580 (antisense eG*eG*dT*dT*dG*dT*dG*dT*dG*dT*d[5mC]*dT*eT*e[5mC]) [compound 372580]
% Control / % Control: 48
--
SUBSTANCE: 372624 (antisense eT*eG*dG*dT*d[5mC]*dT*dT*dG*dT*dG*dA*dT*eT*eG) [compound 372624]
% Control / % Control: 56
--
SUBSTANCE: 372530 (antisense eT*e[5mC]*eG*dG*d[5mC]*d[5mC]*d[5mC]*d[5mC]*dA*dG*dG*dA*dG*e[5mC]*e[5mC]*e[5mC]) [compound 372530]
% Control / % Control: 35
--
SUBSTANCE: 372546 (antisense eT*eT*eG*dG*dT*d[5mC]*dT*dT*dG*dT*dG*dA*dT*eT*eG*eT) [compound 372546]
% Control / % Control: 34
--
SUBSTANCE: 372503 (antisense eG*e[5mC]*eA*dG*dG*dT*dT*dG*dT*dG*dT*dG*dT*e[5mC]*eT*eT) [compound 372503]
% Control / % Control: 35
--
SUBSTANCE: 372578 (antisense eT*eG*dT*dG*dT*d[5mC]*dT*dT*d[5mC]*dA*d[5mC]*d[5mC]*eA*eG) [compound 372578]
% Control / % Control: 59
--
SUBSTANCE: 372500 (antisense eG*eT*eG*dT*dG*dT*d[5mC]*dT*dT*d[5mC]*dA*d[5mC]*d[5mC]*eA*eG*e[5mC]) [compound 372500]
% Control / % Control: 16
--
SUBSTANCE: 372508 (antisense eA*eG*eT*dT*d[5mC]*d[5mC]*dT*dG*dG*dT*dG*dG*dT*e[5mC]*eA*eG) [compound 372508]
% Control / % Control: 35
--
SUBSTANCE: 372491 (antisense eA*e[5mC]*eA*dT*dG*dA*dG*dG*dA*dT*dG*dA*d[5mC]*eA*e[5mC]*eT) [compound 372491]
% Control / % Control: 80
--
SUBSTANCE: 372563 (antisense eA*eG*d[5mC]*d[5mC]*dA*dG*dG*dT*dG*dA*d[5mC]*dA*eG*eA) [compound 372563]
% Control / % Control: 48
--
SUBSTANCE: 372594 (antisense eA*e[5mC]*dA*dG*dA*dA*dG*dG*d[5mC]*dA*d[5mC]*d[5mC]*e[5mC]*eA) [compound 372594]
% Control / % Control: 77
--
SUBSTANCE: 372569 (antisense e[5mC]*eA*dT*dG*dA*dG*dG*dA*dT*dG*dA*d[5mC]*eA*e[5mC]) [compound 372569]
% Control / % Control: 104
--
SUBSTANCE: 372602 (antisense e[5mC]*e[5mC]*dA*dG*dG*d[5mC]*dA*dT*dG*dG*dA*dG*e[5mC]*eT) [compound 372602]
% Control / % Control: 39
--
SUBSTANCE: 372516 (antisense eT*eA*e[5mC]*dA*dG*dA*dA*dG*dG*d[5mC]*dA*d[5mC]*d[5mC]*e[5mC]*eA*eG) [compound 372516]
% Control / % Control: 27

Reference for the values: patent US8372967B2
